Origin of the recorded values: patent US20190321401A1

For each entry below, report its % of CD8- (CD4+) cells positive for E7(11-19) tetramer staining value.
- system_under_test: T1, HPV16 E7(11-19)-peptide-MHC tetramer complex (human papillomavirus 16 (HPV16); human)
- T1 construct: also called E7(11-19)-specific tetramer; MHC/E7(11-19) peptide tetramer
- test_name: flow cytometry, peptide-MHC tetramer staining of TCR-transduced primary human T cells;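 also: normal donor T cells activated with anti-CD3/anti-CD28, then lentivirally transduced with TCRs, with mock-transduced cells as control, co-stained for the transduction marker and CD8, tetramers presented by HLA-A02:01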
Reply numerically in %, unit not repeated.

Indicate its recorded % of CD8- (CD4+) cells positive for E7(11-19) tetramer staining; the binder in question is TCR 58 (mouse constant regions) (TCR, V domains shown) V domain 1: RKEVEQDPGPFNVPEGATVAFNCTYSNSASQSFFWYRQDCRKEPKLLMSVYSSGNEDGRFTAQLNRASQYISLLIRDSKLSDSATYLCVVNRDNYGQNFVFGPGTRLSVLP V domain 2: EPEVTQTPSHQVTQMGQEVILRCVPISNHLYFYWYRQILGQKVEFLVSFYNNEISEKSEIFDDQFSVERPDGSNFTLKIRSTKLEDSAMYFCASTPRSSYEQYFGPGTRLTVTE
0.1

For the binder TCR 57 (mouse constant regions) (TCR, V domains shown) V domain 1: TQLLEQSPQFLSIQEGENLTVYCNSSSVFSSLQWYRQEPGEGPVLLVTVVTGGEVKKLKRLTFQFGDARKDSSLHITAAQPGDTGLYLCAGARNFNKFYFGSGTKLNVKP V domain 2: GAVVSQHPSWVICKSGTSVKIECRSLDFQATTMFWYRQFPKQSLMLMATSNEGSKATYEQGVEKDKFLINHASLTLSTLTVTSAHPEDSSFYICSARSWRGGLEQFFGPGTRLTVLE , give its reported % of CD8- (CD4+) cells positive for E7(11-19) tetramer staining.
86
